Assay: protein stability index of a GFP-peptide fusion (yeast GPS) (PSI 1-4); higher = more stable; sorted into four equal gates, so the index is relative within each strain
Details: pdr5∆
Mark condition met for reported protein stability index of 3 or greater; mark condition not met for anything smaller.

Recorded results for 4 sequences are shown here.
[[record]]
sequence_entry = "TMMTVEEKPDVTYSDVG [RPT1]"
category = "condition not met"

[[record]]
sequence_entry = "QVLKCKESWDPNTTKTK [YGR119C/NUP57]"
category = "condition met"

[[record]]
sequence_entry = "KNKYLKDVLAQTSVTTN [SWP82]"
category = "condition not met"

[[record]]
sequence_entry = "MSGAAAASAAGYDRHIT [SCL1]"
category = "condition not met"


Req: Is protein stability index for DSLISGVKQKITIQLTR [BRR2] at or above 3?
Resp: condition not met

Req: Is reported protein stability index greater than or equal to 3 here: EGNYRNLNNLKQENAYL [RPB8]
Resp: condition met

Req: Test whether the sequence QELISKAFTNWNKRDFM [ISW2] records protein stability index of 3 or higher.
Resp: condition met

// provenance: the supplement of paper PMC9732359
